These entries and their values trace back to patent US7713963B2.

- System: eNOS promoter
- method_summary: Activation of eNOS transcription (eNOS promoter-luciferase reporter gene assay)
- Format: cell-based, human
- applied_conditions: Homo sapiens, 18 h, maximum transcription induction ratio (luciferase with compound / solvent alone); 18 h incubation; read-out: TIR (max)

{"molecule": "CCOc1cccc(C(=O)NC2Cc3ccccc3C2)c1 [Compound 306, 3-ETHOXY-N-INDAN-2-YL-BENZAMIDE]", "maximal fold induction": 2.7}
{"molecule": "O=C(NC1Cc2ccccc2C1)c1cccc(Cl)c1Cl [Compound 276, 2,3-DICHLORO-N-INDAN-2-YL-BENZAMIDE]", "maximal fold induction": 3}
{"molecule": "O=C(NC1Cc2ccccc2C1)c1cccc(Cl)c1F [Compound 250, 3-CHLORO-2-FLUORO-N-INDAN-2-YL-BENZAMIDE]", "maximal fold induction": 2.5}
{"molecule": "O=C(NC1Cc2ccccc2C1)c1ccc(F)cc1Br [Compound 61, 2-BROMO-4-FLUORO-N-INDAN-2-YL-BENZAMIDE]", "maximal fold induction": 2.6}
{"molecule": "O=C(N[C@@H]1Cc2ccccc2[C@H]1O)c1ccc(F)cc1 (relative stereo) [Compound 8]", "maximal fold induction": 2.2}
{"molecule": "O=C(NC1Cc2ccccc2C1)c1ccc(Cl)nc1Cl [Compound 203, 2,6-DICHLORO-N-INDAN-2-YL-NICOTINAMIDE]", "maximal fold induction": 2.7}
{"molecule": "O=C(NC1Cc2ccccc2C1)c1ccc(-c2cccnc2)cc1 [Compound 435, N-INDAN-2-YL-4-PYRIDIN-3-YL-BENZAMIDE]", "maximal fold induction": 2.5}
{"molecule": "Cc1cccc(C(=O)NC2Cc3ccccc3C2)c1Cl [Compound 264, 2-CHLORO-N-INDAN-2-YL-3-METHYL-BENZAMIDE]", "maximal fold induction": 2.9}
{"molecule": "O=C(NC1Cc2c(I)ccc(I)c2C1)c1ccc(F)cc1 [Compound 429]", "maximal fold induction": 2.8}
{"molecule": "O=C(NC1Cc2ccccc2C1)c1ccc(C(=O)C(F)(F)F)cc1 [Compound 256]", "maximal fold induction": 2.5}
{"molecule": "O=C(NC1Cc2ccccc2C1)c1cccc(Oc2ccccc2)c1 [Compound 286, N-INDAN-2-YL-3-PHENOXY-BENZAMIDE]", "maximal fold induction": 2.6}
{"molecule": "O=C(NC1Cc2ccccc2C1)c1ccc(Cl)cc1Cl [Compound 277, 2,4-DICHLORO-N-INDAN-2-YL-BENZAMIDE]", "maximal fold induction": 3}
{"molecule": "Cc1csc(C(=O)NC2Cc3ccccc3C2)c1Cl [Compound 342]", "maximal fold induction": 3}
{"molecule": "CCc1cccc2c1CC(NC(=O)c1ccc(F)cc1)C2 (stereo not drawn) [Compound 428]", "maximal fold induction": 2.8}
{"molecule": "O=C(NC1Cc2ccccc2C1)c1ccc(Cl)cc1 [Compound 69, 4-CHLORO-N-INDAN-2-YL-BENZAMIDE]", "maximal fold induction": 4.2}

----------
- Tested on: eNOS promoter
- method_summary: Activation of eNOS transcription (eNOS promoter-luciferase reporter gene assay)
- Type: cell-based, human
- applied_conditions: Homo sapiens, Endothelial cell, 18 h, EC50 of transcription induction ratio, determined graphically; human endothelial cell line, 18 h incubation; read-out: EC-50
pEC50: −log10 of the molar value.
This section presents compounds with their documented pEC50 values.

{"compound": "Cc1cccc(C(=O)NC2Cc3ccccc3C2)c1Cl [Compound 264, 2-CHLORO-N-INDAN-2-YL-3-METHYL-BENZAMIDE]", "system": "eNOS promoter", "pEC50": 6.24}
{"compound": "CN(C)C(=O)C=Cc1cccc2c1CC(NC(=O)c1ccc(F)cc1)C2 (stereo not shown)", "system": "eNOS promoter", "pEC50": 5.70}
{"compound": "COc1c(Br)cccc1C(=O)NC1Cc2ccccc2C1 [Compound 253, 3-BROMO-N-INDAN-2-YL-2-METHOXY-BENZAMIDE]", "system": "eNOS promoter", "pEC50": 4.89}
{"compound": "CCc1cccc2c1CC(NC(=O)c1ccc(F)cc1)C2 (stereo not shown)", "system": "eNOS promoter", "pEC50": 6.08}
{"compound": "O=C(NC1Cc2ccccc2C1)c1ccc(SC(F)(F)F)cc1", "system": "eNOS promoter", "pEC50": 6.17}
{"compound": "CCOc1ccc(C(=O)NC2Cc3ccccc3C2)c(OC(C)=O)c1", "system": "eNOS promoter", "pEC50": 5.92}
{"compound": "Cc1ccccc1C(=O)NC1Cc2ccccc2C1 [Compound 281, N-INDAN-2-YL-2-METHYL-BENZAMIDE]", "system": "eNOS promoter", "pEC50": 6.16}
{"compound": "O=C(NC1Cc2ccccc2C1)c1sc2cccc(Cl)c2c1Cl", "system": "eNOS promoter", "pEC50": 5.66}
{"compound": "O=C(NC1Cc2ccccc2C1)c1ccc2c(c1)OC(F)(F)O2", "system": "eNOS promoter", "pEC50": 6.85}
{"compound": "CC(C)(C)C(=O)Nc1cccc(C(=O)NC2Cc3ccccc3C2)c1", "system": "eNOS promoter", "pEC50": 5.64}
{"compound": "CCc1sccc1C(=O)NC1Cc2ccccc2C1", "system": "eNOS promoter", "pEC50": 4.43}
{"compound": "Cc1c(C(=O)NC2Cc3ccccc3C2)oc2ccccc12", "system": "eNOS promoter", "pEC50": 4.60}
{"compound": "O=C(NC1Cc2ccccc2C1)c1cccc2ccccc12", "system": "eNOS promoter", "pEC50": 4.85}
{"compound": "CCOc1cc(C(=O)NC2Cc3ccccc3C2)ccc1OC", "system": "eNOS promoter", "pEC50": 4.92}
{"compound": "Cc1cc(C(=O)NC2Cc3ccccc3C2)ccc1Cl [Compound 27, 4-CHLORO-3-METHYL-N-INDAN-2-YL-BENZAMIDE]", "system": "eNOS promoter", "pEC50": 6.70}
{"compound": "O=C(NC1Cc2c(I)ccc(I)c2C1)c1ccc(F)cc1", "system": "eNOS promoter", "pEC50": 6.22}
{"compound": "O=C(NC1Cc2ccc(F)cc2C1)c1ccc(F)cc1 (stereo not shown)", "system": "eNOS promoter", "pEC50": 5.52}
{"compound": "O=C(NC1Cc2ccccc2C1)c1ccc(OCC(F)(F)F)cc1 [Compound 386B]", "system": "eNOS promoter", "pEC50": 6.51}
{"compound": "O=C(NC1Cc2ccccc2C1)c1ccc(F)cc1Br [Compound 61, 2-BROMO-4-FLUORO-N-INDAN-2-YL-BENZAMIDE]", "system": "eNOS promoter", "pEC50": 6.15}
{"compound": "O=C(NC1Cc2ccccc2C1)c1cccc(-c2ccccn2)c1 [Compound 433, N-INDAN-2-YL-3-PYRIDIN-2-YL-BENZAMIDE]", "system": "eNOS promoter", "pEC50": 4.72}
{"compound": "O=C(NC1Cc2ccccc2C1)c1ccc(F)c(Br)c1 [Compound 33, 3-BROMO-4-FLUORO-N-INDAN-2-YL-BENZAMIDE]", "system": "eNOS promoter", "pEC50": 5.40}
{"compound": "Cc1ccc2c(Cl)c(C(=O)NC3Cc4ccccc4C3)sc2c1", "system": "eNOS promoter", "pEC50": 5.40}
{"compound": "O=C(NC1Cc2ccccc2C1)c1cc(F)c(Cl)cc1Cl", "system": "eNOS promoter", "pEC50": 5.24}
{"compound": "O=C(NC1Cc2ccccc2C1)c1cccc(Oc2ccccc2)c1 [Compound 286, N-INDAN-2-YL-3-PHENOXY-BENZAMIDE]", "system": "eNOS promoter", "pEC50": 4.59}
{"compound": "Cc1cc(C(=O)NC2Cc3ccccc3C2)c(C)n1Cc1ccncc1", "system": "eNOS promoter", "pEC50": 6.09}
{"compound": "O=C(NC1Cc2ccccc2C1)c1cccc(NC(=O)C2CC2)c1", "system": "eNOS promoter", "pEC50": 5.28}
{"compound": "O=C(NC1Cc2ccccc2C1)c1ccc(Cl)nc1 [Compound 387, 6-CHLORO-N-INDAN-2-YL-NICOTINAMIDE]", "system": "eNOS promoter", "pEC50": 4.49}
{"compound": "CCOc1ccc(C(=O)NC2Cc3ccccc3C2)cc1 [Compound 26, 4-ETHOXY-N-INDAN-2-YL-BENZAMIDE]", "system": "eNOS promoter", "pEC50": 6.05}

----------
- Tested on: eNOS promoter
- method_summary: Activation of eNOS transcription (eNOS promoter-luciferase reporter gene assay)
- Format: cell-based, human
- applied_conditions: Homo sapiens, Endothelial cell, 18 h, EC50 of transcription induction ratio, determined graphically; human endothelial cell line, 18 h incubation; read-out: EC-50
measurement_kind: EC50 (µM)

{"molecule": "O=C(NC1Cc2ccccc2C1)c1ccc(Oc2ccccc2)cc1 [Compound 32, 4-PHENOXY-N-INDAN-2-YL-BENZAMIDE]", "measurement_kind": "EC50", "experimental_result": 1.7}
{"molecule": "O=C(NC1Cc2ccccc2C1)c1ccc(-c2ccccn2)cc1 [Compound 436, N-INDAN-2-YL-4-PYRIDIN-2-YL-BENZAMIDE]", "measurement_kind": "EC50", "experimental_result": 18}
{"molecule": "Cc1c(C(=O)NC2Cc3ccccc3C2)cccc1C(F)(F)F", "measurement_kind": "EC50", "experimental_result": 21}
{"molecule": "COC(=O)c1cccc(C(=O)NC2Cc3ccccc3C2)c1", "measurement_kind": "EC50", "experimental_result": 0.11}
{"molecule": "O=C(NC1Cc2cccc(C(F)(F)F)c2C1)c1ccc(F)cc1 (centres unmarked)", "measurement_kind": "EC50", "experimental_result": 8.9}
{"molecule": "O=C(NC1Cc2ccccc2C1)c1cccc(Cl)c1Cl [Compound 276, 2,3-DICHLORO-N-INDAN-2-YL-BENZAMIDE]", "measurement_kind": "EC50", "experimental_result": 0.157}
{"molecule": "O=C(NC1Cc2ccccc2C1)c1sc2cc(F)ccc2c1Cl", "measurement_kind": "EC50", "experimental_result": 2.1}
{"molecule": "Cc1nc(C(F)(F)F)ccc1C(=O)NC1Cc2ccccc2C1", "measurement_kind": "EC50", "experimental_result": 7.7}
{"molecule": "O=C(NC1Cc2ccccc2C1)c1cccc(F)c1 [Compound 24, 3-FLUORO-N-INDAN-2-YL-BENZAMIDE]", "measurement_kind": "EC50", "experimental_result": 2.5}
{"molecule": "Nc1nccnc1C(=O)NC1Cc2ccccc2C1", "measurement_kind": "EC50", "experimental_result": 27}
{"molecule": "O=C(NC1Cc2ccccc2C1)c1ccc(Br)cc1Cl [Compound 317, 4-BROMO-2-CHLORO-N-INDAN-2-YL-BENZAMIDE]", "measurement_kind": "EC50", "experimental_result": 0.197}
{"molecule": "O=C(N[C@@H]1Cc2ccccc2[C@H]1O)c1ccc(F)cc1 (relative stereo)", "measurement_kind": "EC50", "experimental_result": 8}
{"molecule": "O=C(NC1Cc2ccccc2C1)c1ccccc1Br [Compound 272, 2-BROMO-N-INDAN-2-YL-BENZAMIDE]", "measurement_kind": "EC50", "experimental_result": 1.6}
{"molecule": "O=C(NC1Cc2ccccc2C1)c1ccc(C(F)(F)F)nc1", "measurement_kind": "EC50", "experimental_result": 22}
{"molecule": "O=C(NC1Cc2ccccc2C1)c1ccccc1Cl [Compound 275, 2-CHLORO-N-INDAN-2-YL-BENZAMIDE]", "measurement_kind": "EC50", "experimental_result": 0.559}
{"molecule": "O=C(NC1Cc2cccc(-c3ccc(F)cc3)c2C1)c1ccc(F)cc1 (centres unmarked) [Compound 398B]", "measurement_kind": "EC50", "experimental_result": 30}
{"molecule": "O=C(NC1Cc2cccc(Br)c2C1)c1ccc(F)cc1 (single isomer, unassigned) [Compound 396A]", "measurement_kind": "EC50", "experimental_result": 0.6}
